test system: SW1116 cells; assay: Cell viability (CellTiterGlo), single agent, 120 h; type: cell-based; details: Homo sapiens, SW 1116, 120 h; SW1116, BRAF WT, 5 day assay
Experimental Readout: pEC50
// pEC50: -log10(molar conc.)

Challenge: Note pEC50 for the compound shown: Cc1cccc(/C=N/Nc2cc(N3CCOCC3)nc(OCCc3ccccn3)n2)c1 [Apilimod]
Response given: 7.92
